Target: T1, fragment DIR-II (last 27 amino acids of the sequence encoded by the retained intron of DIR) (human)
T1 construct: also called target fragment DIR-II
T1 peptide: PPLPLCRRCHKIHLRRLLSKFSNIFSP
Assay: ELISA, DIR-II coated; mAb (1 mg/mL) diluted 1:18k
Readout type: absorbance at 450 nm

Look over these answered cases.
{"columns": ["Binder", "Result"],
 "data": [
  ["DIR antibody IR-II-8 (antibody, V domains shown, Monoclonal antibody) VH: QVQLQQSGAELMKPGASVKISCKATGYTFSNYWIEWVKQRPGHGLEWIGEILPGSGSTNYNEKFKGKATFTADTSSNTAYMQLSSLTSEDSAVYYCARSGMITTRGDYFAMDYWGQGTSVTVSS VL: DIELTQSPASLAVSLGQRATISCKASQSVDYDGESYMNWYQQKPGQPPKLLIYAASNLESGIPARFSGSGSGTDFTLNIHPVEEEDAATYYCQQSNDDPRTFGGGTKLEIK", "0.257 absorbance (450 nm)"],
  ["DIR antibody IR-II-1 (antibody, V domains shown, Monoclonal antibody) VH: QVQLKESGAELMKPGASVKISCKATGYTFSSYWIEWVKQRPGHGLEWIGEILPGSGTTNYNDKFKGKATFTADTSSNTAYMQLSNLTSEDSAVYYCARSYDGYYVFDYWGQGTTLTVSS VL: DIELTQSPASLAVSLGQRATISCKASQSVDYDGDSYMNWYQQKPGQPPKLLIYAASNLESGIPARFSGSGSGTDFTLNIHPVEEEDAATYYCQQSNEDPRTFGGGTKLEIK", "0.818 absorbance (450 nm)"]
]}

## Input Hello, please tell me recorded absorbance at 450 nm for this one: DIR antibody IR-II-6 (antibody, V domains shown, Monoclonal antibody; also called detection antibody) VH: QVQLQQSGAELMKPGASVKISCKATGYTFSRYWIEWIKQRPGHGLEWIGEILPGSYYSTNSNEKFKGKATFTADTSSNTAYMQLSSLTSEDSAVYYCARSGVITTRGDYFAMDYWGHGTSVTVSS VL: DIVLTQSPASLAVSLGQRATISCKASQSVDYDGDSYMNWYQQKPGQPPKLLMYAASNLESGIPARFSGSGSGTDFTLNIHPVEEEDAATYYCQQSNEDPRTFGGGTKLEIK
## Output 2.01 absorbance (450 nm)

## Input Query absorbance at 450 nm for DIR antibody IR-II-4 (antibody, V domains shown, Monoclonal antibody) VH: QVQLQQSGAELMKPGASVKISCKATGYTFSSYWIEWVKQRPGHGLEWIGEILPGSGSTNYNEKFKGKATFTADTSSNTAYMQLNSLTSEDSAVYYCARTDDGYLSYFAMDYWGQGTSVTVSS VL: DILMTQTPASLAVSLGQRATISCKASQSVDYDGDSYMNWYQQKPGQPPKLLIYAASNLESGIPARFSGSGSGTDFTLNIHPVEEEDAATYYCQQSNEDPRTFGGGTKLEIK
## Output 0.555 absorbance (450 nm)

## Input Kindly indicate its recorded absorbance at 450 nm. Item: DIR antibody IR-II-2 (antibody, V domains shown, Monoclonal antibody) VH: EVQLQQSGAELMKPGASVKISCKATGYTFSSYWIEWVKQRPGHGLEWIGEILPGSGTTNYNEKFKGKATFTVDTSSNTAYMQLSSLTSEDSAVYYCARSGVITARGDYYAMDYWGQGTSVTVSS VL: DIVMTQSPASLAVSLGQRATISCKASQSVDYDGDSYMNWYQQKPGQPPKLLIYAASNLDSGIPARFSGSGSGTDFTLNIHPVEEEDAATYYCQQSNEDPRTFGGGTKLEIK
## Output 0.823 absorbance (450 nm)

## Input Look up and report measured absorbance at 450 nm for this entry: DIR antibody IR-II-9 (antibody, V domains shown, Monoclonal antibody) VH: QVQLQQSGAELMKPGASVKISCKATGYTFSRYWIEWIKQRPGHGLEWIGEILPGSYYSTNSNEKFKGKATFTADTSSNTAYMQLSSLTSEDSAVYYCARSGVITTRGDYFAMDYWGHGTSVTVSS VL: DIELTQSPASLAVSLGQRATISCKASQSVDYDGESYMNWYQQKPGQPPKLLIYAASNLESGIPARFSGSGSGTDFTLNIHPVEEEDAATYYCQQSYDDPRAFGGGTKLEIK
## Output 1.87 absorbance (450 nm)
